target: KDR (human) (UniProt P35968); assay: radiometric filter-binding kinase assay, Kinase HotSpot; conditions: compound 0.5 µM; ATP 10 µM
Sequence (P35968 whole entry, looked up): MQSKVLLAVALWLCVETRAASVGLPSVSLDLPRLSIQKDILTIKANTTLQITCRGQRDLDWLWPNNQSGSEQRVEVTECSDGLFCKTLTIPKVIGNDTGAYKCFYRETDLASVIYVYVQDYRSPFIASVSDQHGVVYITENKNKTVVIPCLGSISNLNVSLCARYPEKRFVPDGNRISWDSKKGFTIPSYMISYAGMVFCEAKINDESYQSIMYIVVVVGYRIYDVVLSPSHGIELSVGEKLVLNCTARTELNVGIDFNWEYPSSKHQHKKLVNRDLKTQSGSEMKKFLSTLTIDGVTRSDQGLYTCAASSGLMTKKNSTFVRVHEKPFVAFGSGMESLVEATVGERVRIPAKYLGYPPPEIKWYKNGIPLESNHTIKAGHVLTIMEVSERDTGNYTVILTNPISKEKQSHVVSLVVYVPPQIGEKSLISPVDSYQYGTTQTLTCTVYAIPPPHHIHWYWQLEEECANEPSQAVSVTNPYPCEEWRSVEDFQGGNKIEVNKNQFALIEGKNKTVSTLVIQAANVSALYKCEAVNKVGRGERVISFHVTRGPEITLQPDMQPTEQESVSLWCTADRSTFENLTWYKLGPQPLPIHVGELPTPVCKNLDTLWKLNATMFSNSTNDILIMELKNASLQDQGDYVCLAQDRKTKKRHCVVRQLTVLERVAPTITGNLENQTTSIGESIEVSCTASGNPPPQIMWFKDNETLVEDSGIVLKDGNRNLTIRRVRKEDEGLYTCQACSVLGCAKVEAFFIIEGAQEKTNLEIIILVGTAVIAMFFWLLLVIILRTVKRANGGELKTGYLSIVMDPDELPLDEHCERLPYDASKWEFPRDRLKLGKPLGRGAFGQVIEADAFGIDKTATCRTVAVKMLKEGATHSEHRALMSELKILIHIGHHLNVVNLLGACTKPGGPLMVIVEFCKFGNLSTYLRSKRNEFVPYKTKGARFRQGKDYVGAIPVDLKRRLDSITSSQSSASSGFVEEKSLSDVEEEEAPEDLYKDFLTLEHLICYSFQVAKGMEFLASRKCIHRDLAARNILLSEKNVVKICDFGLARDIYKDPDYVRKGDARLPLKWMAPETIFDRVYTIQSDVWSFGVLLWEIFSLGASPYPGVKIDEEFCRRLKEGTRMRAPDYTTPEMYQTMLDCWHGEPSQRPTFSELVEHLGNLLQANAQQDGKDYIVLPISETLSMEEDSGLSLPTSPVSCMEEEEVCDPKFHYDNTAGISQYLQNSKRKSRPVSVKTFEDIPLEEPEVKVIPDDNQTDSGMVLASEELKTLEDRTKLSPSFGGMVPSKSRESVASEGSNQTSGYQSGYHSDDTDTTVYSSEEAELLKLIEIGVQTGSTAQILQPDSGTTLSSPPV
Provide the reported residual activity of each item.
Give bare numbers, in %.

Please review the entries below; each comes with its answer.
[
  {
    "SMILES_NOTATION": "CC(C)(C)c1cc(C=C(C#N)C#N)cc(Br)c1O",
    "residual activity / %": 97.8
  },
  {
    "SMILES_NOTATION": "COc1ccc(Cl)cc1NC(=O)Nc1cc(C)nc2ccccc12",
    "residual activity / %": 92.8
  },
  {
    "SMILES_NOTATION": "COc1ccc2c(c1)c(C1=C(c3c[nH]c4ccccc34)C(=O)NC1=O)cn2CCCN(C)C",
    "residual activity / %": 40.7
  }
]

// batch mode: one residual activity value per listed entry
1. CN(C)c1ccc(/C=C2\C(=O)Nc3ccccc32)cc1
2. O=C(c1cc2cc(O)ccc2[nH]1)c1cc2cc(O)ccc2[nH]1
3. Fc1ccc(-c2nc3n(c2-c2ccncc2)CCS3)cc1

OUT:
[94.3, 69.9, 95.7]
